- target-desc: Monoacylglycerol lipase ABHD6 (Homo sapiens, UniProt Q9BV23)
- Sequence (Q9BV23 whole entry): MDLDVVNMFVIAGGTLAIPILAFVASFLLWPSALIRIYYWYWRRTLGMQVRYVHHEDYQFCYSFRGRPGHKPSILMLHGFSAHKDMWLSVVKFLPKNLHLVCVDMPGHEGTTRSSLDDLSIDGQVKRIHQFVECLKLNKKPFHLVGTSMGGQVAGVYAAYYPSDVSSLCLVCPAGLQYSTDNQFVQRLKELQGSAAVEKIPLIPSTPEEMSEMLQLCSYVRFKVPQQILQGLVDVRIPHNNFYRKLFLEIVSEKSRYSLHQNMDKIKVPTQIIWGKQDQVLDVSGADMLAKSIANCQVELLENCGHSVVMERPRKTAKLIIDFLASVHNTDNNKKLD
- measurement-description: Inhibition of ABHD6 derived from human PC3 cell lysates preincubated for 30 mins followed by JW912 addition after 30 mins by gel-based ABPP assay
property-name: IC50

molecule_smiles=O=C(OC(C(F)(F)F)C(F)(F)F)N1CCN(Cc2cc(Cl)ccc2N2CCOCC2)CC1 target_desc="Monoacylglycerol lipase ABHD6 (Homo sapiens, UniProt Q9BV23)" recorded_measurement="> 10 µM"

We now examine a further molecule.
Qu. Quick check: IC50 of `Cc1cc(Cl)ccc1C(c1ccc(Cl)cc1C)N1CCN(C(=O)OC(C(F)(F)F)C(F)(F)F)CC1` ?
Ans. > 10 µM

----------
- target-desc: Cytochrome P450 3A5 (Homo sapiens, UniProt P20815)
- Sequence (P20815 whole entry): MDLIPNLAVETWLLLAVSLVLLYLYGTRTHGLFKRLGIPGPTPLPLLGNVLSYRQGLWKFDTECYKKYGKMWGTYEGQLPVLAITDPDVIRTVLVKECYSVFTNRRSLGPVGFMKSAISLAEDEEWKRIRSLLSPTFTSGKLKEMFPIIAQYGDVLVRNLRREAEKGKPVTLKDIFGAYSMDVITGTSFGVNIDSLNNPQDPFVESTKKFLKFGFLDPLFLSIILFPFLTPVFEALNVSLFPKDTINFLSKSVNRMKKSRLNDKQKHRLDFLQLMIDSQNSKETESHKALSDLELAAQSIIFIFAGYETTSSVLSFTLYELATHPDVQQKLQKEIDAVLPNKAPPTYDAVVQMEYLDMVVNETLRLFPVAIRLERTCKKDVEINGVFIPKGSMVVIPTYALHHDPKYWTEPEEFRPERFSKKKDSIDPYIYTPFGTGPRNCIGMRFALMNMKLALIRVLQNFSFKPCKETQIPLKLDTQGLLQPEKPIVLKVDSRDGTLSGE
- measurement-description: Inhibition of recombinant human CYP3A5
pIC50: −log10 of the molar value.
property-name: pIC50

Qu. Quick check: pIC50 of O=C(OC(C(F)(F)F)C(F)(F)F)N1CCN(Cc2ccc(C(F)(F)F)cc2N2CCCC2)CC1 [ELCUBRAGISTAT] ?
Ans. < 4.30

----------
- target-desc: Cytochrome P450 3A4 (Homo sapiens)
- Sequence (P08684 whole entry): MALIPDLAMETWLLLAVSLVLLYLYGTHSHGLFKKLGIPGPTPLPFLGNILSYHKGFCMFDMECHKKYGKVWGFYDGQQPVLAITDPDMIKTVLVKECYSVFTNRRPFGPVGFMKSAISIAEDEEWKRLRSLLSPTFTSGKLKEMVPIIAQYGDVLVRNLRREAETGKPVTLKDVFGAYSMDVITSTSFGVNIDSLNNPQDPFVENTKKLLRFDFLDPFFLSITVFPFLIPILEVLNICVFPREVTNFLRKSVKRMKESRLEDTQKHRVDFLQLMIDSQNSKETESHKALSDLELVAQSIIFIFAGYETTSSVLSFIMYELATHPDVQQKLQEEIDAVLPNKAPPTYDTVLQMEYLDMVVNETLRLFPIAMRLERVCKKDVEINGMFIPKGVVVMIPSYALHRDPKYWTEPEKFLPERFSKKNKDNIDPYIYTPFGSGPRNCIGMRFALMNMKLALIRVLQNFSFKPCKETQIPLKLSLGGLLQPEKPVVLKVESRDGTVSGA
- measurement-description: Inhibition of recombinant human CYP3A4
- Format: ADME
pIC50: −log10 of the molar value.
property-name: pIC50

Qu. Quick check: pIC50 of O=C(OC(C(F)(F)F)C(F)(F)F)N1CCN(Cc2ccc(C(F)(F)F)cc2N2CCCC2)CC1 [ELCUBRAGISTAT] ?
Ans. < 4.30

----------
- target-desc: UniProt:P33261
- Sequence (P33261 whole entry): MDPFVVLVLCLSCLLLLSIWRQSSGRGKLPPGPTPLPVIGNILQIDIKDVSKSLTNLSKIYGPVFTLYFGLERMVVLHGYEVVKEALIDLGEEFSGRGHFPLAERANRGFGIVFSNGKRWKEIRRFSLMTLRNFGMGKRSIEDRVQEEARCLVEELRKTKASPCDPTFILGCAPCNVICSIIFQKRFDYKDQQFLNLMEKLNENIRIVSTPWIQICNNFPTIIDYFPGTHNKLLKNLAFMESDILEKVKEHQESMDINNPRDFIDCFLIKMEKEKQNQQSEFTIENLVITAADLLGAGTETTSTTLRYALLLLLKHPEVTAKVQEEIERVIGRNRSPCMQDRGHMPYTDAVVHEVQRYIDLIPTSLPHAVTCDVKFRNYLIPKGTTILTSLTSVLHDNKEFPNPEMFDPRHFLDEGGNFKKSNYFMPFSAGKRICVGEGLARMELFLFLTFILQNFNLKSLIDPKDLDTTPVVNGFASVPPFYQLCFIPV
- measurement-description: Inhibition of recombinant human CYP2C19
- Format: ADME
property-name: IC50

Qu. Which measured IC50 belongs to `O=C(OC(C(F)(F)F)C(F)(F)F)N1CCN(Cc2ccc(C(F)(F)F)cc2N2CCCC2)CC1` , tested on UniProt:P33261?
Ans. > 50 µM

----------
- measurement-description: Cmax in Beagle dog at 1 mg/kg, po by LC-MS analysis
- experimental-setup: in vivo
property-name: Cmax

Qu. Quick check: Cmax of O=C(OC(C(F)(F)F)C(F)(F)F)N1CCN(Cc2ccc(C(F)(F)F)cc2N2CCCC2)CC1 [ELCUBRAGISTAT] ?
Ans. 777 nM
